assay: Effective concentration of compound was determined for electrophysiological properties on Ionotropic glutamate receptor AMPA 1 (GluR1) using […] Xenopus laevis oocytes
reported metric: pEC50
Here pEC50 is given on a logarithmic scale as minus log10 of the concentration in mol/L.

What measured pEC50 goes with NC(Cc1o[nH]c(=O)c1Cl)C(=O)O (stereo unspecified) ?
5.33
